meta.source: patent US4626540A

What response vs control in vivo at 100 mg/kg was measured for each of the following?
Tested on: lymphocytic leukemia P388
assay.explanation: In vivo lymphocytic leukemia P388 test
Set-up: species or system CD2 F1 mice
study.conditions: Mus musculus, P388, ip; 100 mg/kg, intraperitoneal, once daily for five days; survival time treated/control; read-out: P388 in vivo T/C × 100
Number only, in %; omit the unit.

response vs control in vivo at 100 mg/kg measured on COc1ccc2c(c1)c(=O)c1c(NCCN(C)C)ccc([N+](=O)[O-])c1n2C [Example 33] = 137

response vs control in vivo at 100 mg/kg measured on CN(C)CCCNc1ccc([N+](=O)[O-])c2[nH]c3ccccc3c(=O)c12.CS(=O)(=O)O [Example 20] = 189

response vs control in vivo at 100 mg/kg measured on CCN(CC)CCNc1ccc([N+](=O)[O-])c2[nH]c3ccc(N(C)C)cc3c(=O)c12.CS(=O)(=O)O [Example 7] = 169

response vs control in vivo at 100 mg/kg measured on COc1ccc2[nH]c3c([N+](=O)[O-])ccc(NC(C)CN(C)C)c3c(=O)c2c1 (stereo not shown) [Example 12, hydrate] = 180

response vs control in vivo at 100 mg/kg measured on COc1ccc2[nH]c3c([N+](=O)[O-])ccc(NCCCN(C)C)c3c(=O)c2c1 [Example 22, hemihydrate] = 205

response vs control in vivo at 100 mg/kg measured on COc1ccc2[nH]c3c([N+](=O)[O-])ccc(NCCN(C)C)c3c(=O)c2c1.CS(=O)(=O)O [Example 9] = 201

response vs control in vivo at 100 mg/kg measured on CCOc1ccc2[nH]c3c([N+](=O)[O-])ccc(NCCN(C)C)c3c(=O)c2c1.CS(=O)(=O)O [Example 10] = 193

----------
What MIC was measured for each of the following?
Test system: Corynebacterium Sp. ATCC 21698

MIC measured on CCOc1ccc2[nH]c3c([N+](=O)[O-])ccc(NCCN(C)C)c3c(=O)c2c1.CS(=O)(=O)O = > 1000 µg/mL

MIC measured on CCOc1ccc2[nH]c3c([N+](=O)[O-])ccc(NCCCN(C)C)c3c(=O)c2c1.CS(=O)(=O)O = < 0.46 µg/mL

MIC measured on CCN(CC)CCNc1ccc([N+](=O)[O-])c2[nH]c3cccc(O)c3c(=O)c12.CS(=O)(=O)O = < 0.46 µg/mL

MIC measured on CCCCOc1ccc2[nH]c3c([N+](=O)[O-])ccc(NCCN(CC)CC)c3c(=O)c2c1.CS(=O)(=O)O = > 1000 µg/mL

MIC measured on O=c1c2ccccc2[nH]c2c([N+](=O)[O-])ccc(NCCNCCO)c12 = < 0.46 µg/mL

MIC measured on CCOc1ccc2[nH]c3c([N+](=O)[O-])ccc(NCCNCCO)c3c(=O)c2c1.CS(=O)(=O)O = < 0.46 µg/mL

MIC measured on CCCCOc1ccc2[nH]c3c([N+](=O)[O-])ccc(NCCN(C)C)c3c(=O)c2c1.CS(=O)(=O)O = > 1000 µg/mL

----------
System: HCT-8 cells
assay.explanation: In vitro proliferating human colon adenocarcinoma (HCA) cell screen, HCT-8 cells;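 also: ID50 is the molar concentration giving 50% growth inhibition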
Type: cell-based
study.conditions: 60-65 hours at 37° C., value is ID50 multiplied by 10^7
pIC50: −log10 of the molar value.
Give Condition met when the value for pIC50 is at least 6. Give Condition not met when it is less.

Please indicate if the recorded pIC50 for CCCCOc1ccc2[nH]c3c([N+](=O)[O-])ccc(NCCNCCO)c3c(=O)c2c1 [Example 18, hydrate] meets or exceeds 6.
Condition met

Please indicate if the recorded pIC50 for COc1ccc2[nH]c3c([N+](=O)[O-])ccc(NCCCN(C)C)c3c(=O)c2c1 [Example 22, hemihydrate] meets or exceeds 6.
Condition met

Please indicate if the recorded pIC50 for COc1ccc2[nH]c3c([N+](=O)[O-])ccc(NC(C)CN(C)C)c3c(=O)c2c1 (stereo not shown) [Example 12, hydrate] meets or exceeds 6.
Condition met

Please indicate if the recorded pIC50 for CCCOc1ccc2[nH]c3c([N+](=O)[O-])ccc(NCCN(CC)CC)c3c(=O)c2c1.CS(=O)(=O)O [Example 5, methanesulfonate] meets or exceeds 6.
Condition not met

Please indicate if the recorded pIC50 for COc1ccc2c(c1)c(=O)c1c(NCCN(C)C)ccc([N+](=O)[O-])c1n2C meets or exceeds 6.
Condition not met

Please indicate if the recorded pIC50 for CN(C)CCNc1ccc([N+](=O)[O-])c2[nH]c3ccccc3c(=O)c12 [Example 8, hemihydrate] meets or exceeds 6.
Condition met
